Data provenance: patent US20260263521A1

Below is a list of entries, each paired with its recorded Geo mean (%) at 800 nM value.
Target: T1, human CD200R1 expressed on cells (Jurkat-CD200R1, U937-CD200R1, HH cells) (human, UniProt Q8TD46 25-348)
T1 construct: whole, on cells; also called HH (CRL-2105); cell surface-expressed CD200R1
T1 sequence (looked up): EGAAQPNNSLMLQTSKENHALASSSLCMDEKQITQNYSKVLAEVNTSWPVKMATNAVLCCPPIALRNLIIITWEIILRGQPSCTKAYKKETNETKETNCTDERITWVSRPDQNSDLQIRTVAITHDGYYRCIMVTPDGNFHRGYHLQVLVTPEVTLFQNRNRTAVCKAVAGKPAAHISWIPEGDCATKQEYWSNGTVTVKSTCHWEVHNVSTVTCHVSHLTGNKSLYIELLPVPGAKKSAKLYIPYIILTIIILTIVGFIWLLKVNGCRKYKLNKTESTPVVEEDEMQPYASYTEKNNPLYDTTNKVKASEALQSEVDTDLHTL
Assay: flow cytometry, HH cells; drawn table

binder	Geo mean (%) at 800 nM
P001018 scFv mutant L3-L95D (scFv) scFv: QVQLVQSGAEVKKPGASVKVSCKASGYTFTSYVMHWVRQAPGQGLEWMGYINPYNDDTNYNEKFKGRVTMTRDTSTSTVYMELSSLRSEDTAVYYCAREDYYGSRWGYWGQGTLVTVSSGGGGSGGGGSGGGGSDIVLTQSPASLAVSPGQRATITCRASKSVSTSGYSYMHWYQQKPGQPPKLLIYLASNLESGVPARFSGSGSGTDFTLTINPVEANDTANYYCQHSRELDTFGQGTKVEIK	145
P001018 (huOX108.1) (antibody, V domains shown, also called humanized antibody P001018) VH: QVQLVQSGAEVKKPGASVKVSCKASGYTFTSYVMHWVRQAPGQGLEWMGYINPYNDDTNYNEKFKGRVTMTRDTSTSTVYMELSSLRSEDTAVYYCAREDYYGSRWGYWGQGTLVTVSS VL: DIVLTQSPASLAVSPGQRATITCRASKSVSTSGYSYMHWYQQKPGQPPKLLIYLASNLESGVPARFSGSGSGTDFTLTINPVEANDTANYYCQHSRELLTFGQGTKVEIK	100
P001018 scFv mutant L3-R92S (scFv) scFv: QVQLVQSGAEVKKPGASVKVSCKASGYTFTSYVMHWVRQAPGQGLEWMGYINPYNDDTNYNEKFKGRVTMTRDTSTSTVYMELSSLRSEDTAVYYCAREDYYGSRWGYWGQGTLVTVSSGGGGSGGGGSGGGGSDIVLTQSPASLAVSPGQRATITCRASKSVSTSGYSYMHWYQQKPGQPPKLLIYLASNLESGVPARFSGSGSGTDFTLTINPVEANDTANYYCQHSSELLTFGQGTKVEIK	116
P001018 scFv mutant H3-Y102T (scFv) scFv: QVQLVQSGAEVKKPGASVKVSCKASGYTFTSYVMHWVRQAPGQGLEWMGYINPYNDDTNYNEKFKGRVTMTRDTSTSTVYMELSSLRSEDTAVYYCAREDYYGSRWGTWGQGTLVTVSSGGGGSGGGGSGGGGSDIVLTQSPASLAVSPGQRATITCRASKSVSTSGYSYMHWYQQKPGQPPKLLIYLASNLESGVPARFSGSGSGTDFTLTINPVEANDTANYYCQHSRELLTFGQGTKVEIK	121
